Parameter: functional reporter gene assay (% inhibition), 0.2 µg/mL mAb. Scope: all listed entries.
study-system: T1, human IL-1RAcP on 293T/17-FR cells (human, UniProt Q9NPH3 21-570)
T1 sequence (looked up): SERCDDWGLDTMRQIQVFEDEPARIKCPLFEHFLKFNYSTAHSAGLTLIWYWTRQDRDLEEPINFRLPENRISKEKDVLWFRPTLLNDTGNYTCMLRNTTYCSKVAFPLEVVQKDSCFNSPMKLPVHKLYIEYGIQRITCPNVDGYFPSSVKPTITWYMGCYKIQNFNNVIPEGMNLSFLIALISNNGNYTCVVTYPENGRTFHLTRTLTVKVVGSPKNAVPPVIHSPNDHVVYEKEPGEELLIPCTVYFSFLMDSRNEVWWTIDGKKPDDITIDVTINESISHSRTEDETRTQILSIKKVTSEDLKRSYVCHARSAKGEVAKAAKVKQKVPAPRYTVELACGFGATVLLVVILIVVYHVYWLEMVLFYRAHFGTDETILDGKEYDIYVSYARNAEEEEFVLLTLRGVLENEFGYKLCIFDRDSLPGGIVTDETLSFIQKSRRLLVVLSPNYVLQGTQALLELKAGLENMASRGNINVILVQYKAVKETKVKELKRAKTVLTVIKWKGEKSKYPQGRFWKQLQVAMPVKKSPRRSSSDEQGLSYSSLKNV
assay-protocol: cell-based or functional assay
Report field: quantity (unit follows the number).

See these solved cases before continuing.
P013.S.01.B.E04 (antibody, V domains shown, rabbit monoclonal antibody; also called P013.A.00109.D07) VH: QSVEESGGRLVTPGTPLTLTCTVSGIDLNSNGINWVRQAPGKGLEWIGYIGAGDITYCASWAKGRFTISKTSSTTVDLKITSLTTEDTATYFCARWGPGALDLWGQGTLVTVSS VL: AQVLTQTASSVSATVGGTVTISCQSSQSVYNNNYLSWYQQKPGQPPKLLIYKASTLASGVPLRFSGSGSGTQFTLTISGVQSDDAATYYCAGFYETTDVGFGGGTEVVVK; 62%
P013.S.02.B.E02 (antibody, V domains shown, rabbit monoclonal antibody; also called P013.A.00087.E09) VH: QSVEESGGRLVTPGTPLTLTCTVSGFSLNVYNMGWVRQAPGKGLEYIGIISSSGTTYYASWAKGRFTISKTSSTTVDLKITSLTTEDTATYFCARADGYTEGDYATYFNLWGQGTLVTVSS VL: DIVMTQTPASVSEPVGGTVTIKCQASQSITTWLAWYQQKPGQPPKLLIYQASALASGVSSRFIGSGYGTEFTLTISGVQSEDAATYYCQCTYGIGSGSSYGVAFGGGTEVVVK; 14%

Alright, here's another binder for you.
// recorded functional reporter gene assay (% inhibition), 0.2 µg/mL mAb for P013.S.02.B.A05 (antibody, V domains shown, rabbit monoclonal antibody; also called P013.A.00031.D11) VH: QEQLVESGGGLVQPEGSLTLTCQASGFTFSSYYVICWVRQAPGKGLEWIACIGTGDGLTYYASWAKGRFTISKTSSTTVTLQMTSLTAADTATYFCARDRYATVSGILNLWGPGTLVTVSS VL: DVVMTQTPASVEAAVGGTVTIKCQASQNIYSNCAWYQQKLGQRPKLLIYYVSTLESGVPSRFEGSGYGTEFTLTISDLQSADAATYYCQYTYDSSSSTSWAFGGGTEVVVK : 42%
